Target: Vg9/Vd1 T cell receptor on SKW3 cells (UniProt Q99603)
Sequence (Q99603 21-122): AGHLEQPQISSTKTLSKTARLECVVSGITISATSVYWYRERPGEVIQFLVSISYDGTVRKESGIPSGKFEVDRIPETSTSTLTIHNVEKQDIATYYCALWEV
Experiment: flow cytometry, DRC binding at 37°C on SKW3 cells expressing Vg9/Vd1
Rule: Max. Activity (fold over background) of 2 or more gives t; anything lower gives f.

For orientation, consider the following solved cases.
| Binder | Answer label |
| --- | --- |
| VG9B201 (antibody, human IgG1, lambda, V domains shown) VH: QVTLKESGPTLVKPTQTLTLTCTFSGFSLTTHGVGVGWIRQPPRKALEWLALIYWNADKHYSPSLKSRLTITKDTSKNQVVLTMTHMDPVDTATYYCAHEGDWGHYFDFWGQGTLVTVSS VL: QLVLTQPPSVSAAPGQKVTISCSGSSSNIGNNDVSWYQQLPGTAPKLLIYDNNRRPSGIPDRFSGSKSGTSATLGITGLQTGDEADYYCETWDSSLSAIWVFGGGTKVTVLG | t |
| VG9B470 (antibody, human IgG1, kappa, V domains shown) VH: QVTLKESGPTLVKPTQTLTLTCTFSGFSLTTSGVGVGWIRQPPGKALEWLALILWNDHTIYSPSLKSRLTITKDTSKNQVVLTMTNMDPVDTAAYFCARDKWELRDAFDIWGQGTMVTVSS VL: EIVMTQSPSFLSASVGDRVTFTCRASQGISRYLAWYQQKPGRAPNLLIYVASTLQSGVPSRFSGSGSGTEFTLTISSLLPEDFATYYCQQLISYPYTFSQGTRLEIKR | f |
| VG9B194 (antibody, human IgG1, lambda, V domains shown) VH: EVQLLESGAEVKKPGASVKVSCKASGYTFTGDYMHWVRQAPGQGLEWMGWINPNSGYTNNAEKFQGRVTMTRDTSISTAYMELSRLSSDDTAVYYCTRELDALDVWGQGTMVTVSS VL: QSVLTQPPSASGSPGQSVTISCTGTSSDVGGYNYVSWYQQHPGKAPKLMIYEVSKRPSGVPDRFSGSKSGNTASLTVSGLQAEDEADYYCNSYAGSNNFEVFGGGTKVTVLG | t |
| VG9B396 (antibody, human IgG1, lambda, V domains shown) VH: EVQLVESGPGLVQPSETLSLTCTVSGDSIRGYYWNWIRQPAGKGLEWIGRIFTTGNTNYNPSLKSRLTMSLDTSKNQFSLKLNSVTAADTAVYYCAREKWDSSSSALYFDFWGQGTLVTVSS VL: QSVLTQAPSVSGAPGQRVTISCTGSSSNIGADYDVKWYQQLPGTAPKLLIYGNTDRPSGVPDRFSGSKSGTSASLAITGLQAEDEADYYCQSYDSRLTGYVVFGGGTKLTVLG | t |
| VG9B383 (antibody, human IgG1, lambda, V domains shown) VH: QVQLQESGPGLVKPSETLSLTCTVSSGSISSYYWNWIRQPAGKGLEWVGRIYTIGNTNYNPSLKSRVTMSIDTSKNQFSLNLSSVTAADTAVYFCAREGYYDSSGSFFPGAFGIWGQGTMVTVSS VL: SSELTQPASVSGSPGQSITISCTGTSNDVGSYNLVSWYQQHPGKAPKLMIYAGSKRPSGISNRFSGSKSGNTASLTISGLQAEDEADYYCCSFAGATNVVFGGGTKLTVLG | f |
| VG9B411 (antibody, human IgG1, kappa, V domains shown) VH: EVQLVESGGGLVKPGGSLRLSCSASGFTFSNYDMNWVRQAPGKGLEWVSSISSSSSYIYYADSVKGRFTISRDNAKNSLYLQMNSLRAEDTAVYHCARDVGVTTDYYYYGMDVWGQGTTVTVSS VL: EIVMTQSPSSVSASVGDRVTITCRASQGINSWLAWYQQDPYKAPKLLIYAASTLQSGVPSRFGGRGSGTEFTLTISSLQPEDFAVYYCQQYNNWPRTFGQGTKVDIKR | t |

[in] Is it the case that VG9B465 (antibody, human IgG1, lambda, V domains shown) VH: QVQLQQSGPGLVKPSETLSLTCTVSGGSITSYYWNWIRQPAGKGLEWIGRIYTIGNTNYNPSLKSRVTMSIDTSKHQFSLKLSSVTGADTAVYYCAREGYYESDGSFFPGAFNIWGQGTMVTVSS VL: SSELTQPASVSGSPGQSITISCTGTSNDVGSYNLVSWYQQHPGKAPKLMIYAGSKRPSGISNRFSGSKSGNTASLTISGLQAEDEADYYCCSYAGTTNVVFGGGTKVTVLG has Max. Activity (fold over background) reaching or exceeding 2?
[out] t

[in] Reported Max. Activity (fold over background) reaches at least 2 for VG9B86 (antibody, human IgG1, kappa, V domains shown) VH: QVQLQESGPGLVKPSETLSLTCTVSGDSISSSYWSWIRQPAGKGLECIGRFYSSGSTSYNPSLKSRVTMAIDTSKNQFSLKLTSVTAADTAVYYCARYSGSYWYFDLWGRGTTVTVSS VL: EIVLTQSPATLSLSPGERATLSCRASQSVSSYLAWYQQRPGQAPRLLIYDTSNRATGIPARFSGSGSGTDFTLTISSLAPEDFAVYYCQQRSDWLLTFGGGTKVEIKR ?
[out] f

[in] Could you verify whether the entry VG9B382 (antibody, human IgG1, lambda, V domains shown) VH: QVQLQESGPGLVKPSETLSLTCTVSGDSISGYYWNYIRQPAGKGLDWIGRIFTTGNTNYNPSLKSRVTMSVDTSKNQFSLKLTSVTAADTAVYYCARERWDSSSSALYFDYWGQGTLVTVSS VL: QSVLTQPPSVSGAPGQRVTISCTGSSSNIGADYDIKWYQQLPGTAPKLLIYGNSNRPSGVPDRFSGSKSGTSVSLAITGLQAEDEADYYCQSYDSSMSGYVVFGGGTKLTVLG shows Max. Activity (fold over background) of no less than 2?
[out] f
